Kindly state apparent Kd (screen) for each of the entries shown.
TARGET: T1, TNFR1 (Homo sapiens, UniProt P19438)
T1 chain: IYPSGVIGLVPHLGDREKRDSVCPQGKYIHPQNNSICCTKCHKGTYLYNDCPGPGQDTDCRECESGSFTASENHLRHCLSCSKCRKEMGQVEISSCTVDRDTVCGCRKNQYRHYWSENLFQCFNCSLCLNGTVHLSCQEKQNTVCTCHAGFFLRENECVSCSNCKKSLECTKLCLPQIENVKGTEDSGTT
EXPERIMENT_DESCRIPTION: yeast display SC50

Query L43W (designed binder) SMEEEVEKAAKEYEKKKKEAIEKHLEKLKAKDKEAAERFLKEWEEAAKEYAKDEAKTMSEEEAKRRAKKYKEKVLLSELSEEEQKEIKEAEEKLVRTILKYVEEAAK yields apparent Kd (screen) of 2.73 nM

Query K8V (designed binder) SMEEEVEVAAKEYEKKKKEAIEKHLEKLKAKDKEAAERFLKELEEAAKEYAKDEAKTMSEEEAKRRAKKYKEKVLLSELSEEEQKEIKEAEEKLVRTILKYVEEAAK yields apparent Kd (screen) of 1.16 nM

Query K69T (designed binder) SMEEEVEKAAKEYEKKKKEAIEKHLEKLKAKDKEAAERFLKELEEAAKEYAKDEAKTMSEEEAKRRAKTYKEKVLLSELSEEEQKEIKEAEEKLVRTILKYVEEAAK yields apparent Kd (screen) of 2.05 nM

Query E37I (designed binder) SMEEEVEKAAKEYEKKKKEAIEKHLEKLKAKDKEAAIRFLKELEEAAKEYAKDEAKTMSEEEAKRRAKKYKEKVLLSELSEEEQKEIKEAEEKLVRTILKYVEEAAK yields apparent Kd (screen) of 0.956 nM
